Tested target: SUMO-activating enzyme subunit 1 (Homo sapiens)
Sequence (Q9UBE0 whole entry): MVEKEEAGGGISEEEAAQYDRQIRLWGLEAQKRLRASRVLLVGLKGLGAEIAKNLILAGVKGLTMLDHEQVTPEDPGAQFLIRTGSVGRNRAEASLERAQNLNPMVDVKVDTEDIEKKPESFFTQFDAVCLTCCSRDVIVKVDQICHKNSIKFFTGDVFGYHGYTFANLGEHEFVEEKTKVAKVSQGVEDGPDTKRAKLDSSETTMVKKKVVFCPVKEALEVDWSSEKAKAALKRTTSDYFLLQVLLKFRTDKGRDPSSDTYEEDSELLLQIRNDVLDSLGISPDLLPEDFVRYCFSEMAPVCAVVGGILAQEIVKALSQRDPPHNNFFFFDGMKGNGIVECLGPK
Experimental protocol: Inhibition of recombinant GST-fused SUMO E1 (unknown origin) using RanGAP1 as substrate after 2 hrs by immunoblot analysis
Rule: IC50 below 30 µM gives Met. Equal to or above 30 µM gives Not met.

Line notation	Class
COc1ccc(NC(=O)Nc2ccc(Oc3ncnc4cc(Cl)ccc34)nc2)cc1OC1CCCC1	Met
CCc1cc(=O)[nH]c(-n2nc(-c3ccccc3)cc2NC(=O)Nc2ccc3c(c2)OCO3)n1	Not met
COc1cc(NC(=O)Nc2cc(-c3ccccc3)nn2-c2nc(C)cc(=O)[nH]2)cc(OC)c1	Not met

Input line: State whether 30 µM exceeds IC50 recorded for COc1ccc(NC(=O)Nc2nc(-c3ccc(C)c(Cl)c3)c(C)s2)cc1OC1CCCC1 .
Output line: Not met

Input line: State whether 30 µM exceeds IC50 recorded for CCc1cc(=O)[nH]c(-n2nc(-c3ccccc3)cc2NC(=O)Nc2ccc(C(C)(C)C)cc2)n1 .
Output line: Met

Input line: State whether 30 µM exceeds IC50 recorded for COc1cc(NC(=O)Nc2nc(-c3nc4ccccc4s3)cs2)cc(OC)c1OC .
Output line: Not met

* * *

Tested target: SUMO-activating enzyme subunit 1 (Homo sapiens) (UniProt Q9UBE0)
Experimental protocol: Inhibition of recombinant GST-fused SUMO E1 (unknown origin) using RanGAP1 as substrate at 100 uM after 2 hrs by immunoblot analysis
Assay setup: values are per cent of control
Rule: residual activity below 40% gives 1.0. Equal to or above 40% gives 0.0.

Known results for compounds:
Line notation	Tested target	Class
COc1cccc(NC(=O)Nc2nc(C)c(C(C)=O)s2)c1	SUMO-activating enzyme subunit 1 (Homo sapiens) (UniProt Q9UBE0)	0.0
COc1cc(NC(=O)Nc2nc(-c3nc4ccccc4s3)cs2)cc(OC)c1OC	SUMO-activating enzyme subunit 1 (Homo sapiens) (UniProt Q9UBE0)	1.0
COc1cc(NC(=O)Nc2nc3cc(C)c(C)cc3s2)cc(OC)c1OC	SUMO-activating enzyme subunit 1 (Homo sapiens) (UniProt Q9UBE0)	0.0
COc1ccc(NC(=O)Nc2nc(-c3ccc(OC)c(OC)c3)cs2)cc1	SUMO-activating enzyme subunit 1 (Homo sapiens) (UniProt Q9UBE0)	0.0
Cc1cc(=O)[nH]c(-n2nc(-c3ccccc3)cc2NC(=O)Nc2ccc3c(c2)OCO3)n1	SUMO-activating enzyme subunit 1 (Homo sapiens) (UniProt Q9UBE0)	1.0

Input line: State whether 40% exceeds residual activity recorded for CCc1cc(=O)[nH]c(-n2nc(-c3ccccc3)cc2NC(=O)Nc2ccc(OC)cc2)n1 .
Output line: 1.0

Input line: State whether 40% exceeds residual activity recorded for CCOc1ccc(NC(=O)Nc2nc(-c3ccccc3)c(C)s2)cc1 .
Output line: 0.0

Input line: State whether 40% exceeds residual activity recorded for COc1ccccc1NC(=O)Nc1nc(-c2ccc(OC)c(OC)c2)cs1 .
Output line: 0.0

* * *

Tested target: SUMO-activating enzyme subunit 1 (Homo sapiens) (UniProt Q9UBE0)
Experimental protocol: Inhibition of recombinant GST-fused SUMO E1 (unknown origin) using RanGAP1 as substrate at 20 uM after 2 hrs by immunoblot analysis
Assay setup: values are per cent of control
Measure name: residual activity (%)
Give bare numbers, in %.

Some compounds with known residual activity results, for comparison:
Line notation	Tested target	Value reported
COc1ccc(NC(=O)Nc2nc3c(ccc4ccccc43)s2)cc1	SUMO-activating enzyme subunit 1 (Homo sapiens) (UniProt Q9UBE0)	84.7
CCc1cc(=O)[nH]c(-n2nc(-c3ccccc3)cc2NC(=O)Nc2ccc(OC)cc2)n1	SUMO-activating enzyme subunit 1 (Homo sapiens) (UniProt Q9UBE0)	65.6
Cn1nc(C(C)(C)C)cc1NC(=O)Nc1ccc(OCc2ccccc2)cc1	SUMO-activating enzyme subunit 1 (Homo sapiens) (UniProt Q9UBE0)	92.9
COc1cc(NC(=O)Nc2cc(-c3ccccc3)nn2-c2nc(C)cc(=O)[nH]2)cc(OC)c1	SUMO-activating enzyme subunit 1 (Homo sapiens) (UniProt Q9UBE0)	57.5
COc1ccc(NC(=O)Nc2nc(-c3ccccc3)c(C(C)=O)s2)cc1OC	SUMO-activating enzyme subunit 1 (Homo sapiens) (UniProt Q9UBE0)	86

Could you tell me residual activity for each of these compounds? They are listed below.
1. COc1ccc(NC(=O)Nc2nc(-c3ccc(C)c(Cl)c3)c(C)s2)cc1OC1CCCC1
2. COc1cc(NC(=O)Nc2nc(-c3ccc(Cl)s3)cs2)cc(OC)c1OC
3. COc1ccccc1NC(=O)Nc1cc(C(C)(C)C)nn1C
4. COc1cccc(NC(=O)Nc2cc(C)nn2-c2ccc(F)cc2)c1

Output line:
[39.8, 60.8, 102, 96]

Could you tell me residual activity for each of these compounds? They are listed below.
1. O=C(Nc1ccc(OCc2ccccc2)cc1)Nc1cc(-c2ccccc2)nn1-c1ccccc1
2. CCc1c(C)nc(-n2nc(C)cc2NC(=O)Nc2cccc(OC)c2)[nH]c1=O
3. COc1ccc(NC(=O)Nc2nc(C)c(C(C)=O)s2)cc1
4. COc1ccc(NC(=O)Nc2nc3cc(C)c(C)cc3s2)cc1OC
5. CCc1cc(=O)[nH]c(-n2nc(-c3ccccc3)cc2NC(=O)Nc2ccc(C(C)(C)C)cc2)n1
6. COc1cc(C)ccc1NC(=O)Nc1cn(-c2ccccc2)nc1-c1ccc(OC)c(OC)c1
7. Cc1ccc(S(=O)(=O)NC(=O)Nc2nc(-c3ccc(C)c(Cl)c3)c(C)s2)cc1

Output line:
86.3
98.1
105
94.6
55.2
88.9
79.3

Could you tell me residual activity for each of these compounds? They are listed below.
1. COc1ccc(NC(=O)Nc2nc(-c3ccc(OC)c(OC)c3)cs2)cc1
2. Cc1ccc(-c2nc(NC(=O)Nc3ccc(F)cc3)sc2C)cc1Cl
3. COc1ccc(NC(=O)Nc2cc(C)nn2C2CCCC2)cc1
4. Cc1cc(=O)[nH]c(-n2nc(-c3ccccc3)cc2NC(=O)Nc2ccc3c(c2)OCO3)n1
5. COc1cc(NC(=O)Nc2nc(-c3cc4ccccc4o3)cs2)cc(OC)c1OC
6. Cn1nc(-c2ccccc2)cc1NC(=O)Nc1ccc(OCc2ccccc2)cc1

Output line:
[92, 93.9, 93.7, 57.7, 76.8, 72]

* * *

Tested target: SUMO-activating enzyme subunit 1 (Homo sapiens)
Experimental protocol: Inhibition of recombinant GST-fused SUMO E1 (unknown origin) using RanGAP1 as substrate at 100 uM after 2 hrs by immunoblot analysis
Assay setup: values are per cent of control
Measure name: residual activity

Line notation	residual activity
COc1cc(NC(=O)Nc2nc3c(OC)ccc(C)c3s2)cc(OC)c1OC	83.5%
COc1cc(NC(=O)Nc2nc(-c3cc4ccccc4o3)cs2)cc(OC)c1OC	45.3%
CCc1cc(=O)[nH]c(-n2nc(-c3ccccc3)cc2NC(=O)Nc2cc(OC)cc(OC)c2)n1	26.8%
CCc1c(C)nc(-n2nc(C)cc2NC(=O)Nc2cccc(OC)c2)[nH]c1=O	103%
Cn1nc(-c2ccccc2)cc1NC(=O)Nc1ccc(OCc2ccccc2)cc1	3%
CCc1cc(=O)[nH]c(-n2nc(-c3ccccc3)cc2NC(=O)Nc2ccc(C(C)(C)C)cc2)n1	1.88%

Could you tell me residual activity for each of these molecules? They are listed below.
1. COc1cc(C)ccc1NC(=O)Nc1cn(-c2ccccc2)nc1-c1ccc(OC)c(OC)c1
2. COc1ccc(NC(=O)Nc2nc(C)c(C(C)=O)s2)cc1

Output line:
1. 57.5%
2. 93.3%

* * *

Tested target: SUMO-activating enzyme subunit 1 (Homo sapiens)
Experimental protocol: Inhibition of recombinant GST-fused SUMO E1 (unknown origin) using RanGAP1 as substrate at 100 uM after 2 hrs by immunoblot analysis
Assay setup: values are per cent of control
Measure name: residual activity (%)
Numbers only, in %.

Line notation	Measure name	Value reported
COc1ccc(NC(=O)Nc2nc(-c3ccc(C)c(Cl)c3)c(C)s2)cc1OC1CCCC1	residual activity	13
COc1ccc(NC(=O)Nc2nc(-c3ccccc3)c(C(C)=O)s2)cc1OC	residual activity	13.7
CCc1cc(=O)[nH]c(-n2nc(-c3ccccc3)cc2NC(=O)Nc2ccc3c(c2)OCO3)n1	residual activity	5.69
O=C(Nc1cccc(Cl)c1)Nc1nc2c(ccc3ccccc32)s1	residual activity	0.02
COc1cccc(NC(=O)Nc2cc(C)nn2C2CCCC2)c1	residual activity	101
Cc1ccc(-c2nc(NC(=O)Nc3cccc(Cl)c3)sc2C)cc1	residual activity	45.6
COc1ccc(NC(=O)Nc2nc3cc(C)c(C)cc3s2)cc1OC	residual activity	76.6
COc1ccc(NC(=O)Nc2cc(C)nn2-c2ccc(F)cc2)cc1	residual activity	95.4
COc1cc(NC(=O)Nc2nc(-c3ccc(Cl)s3)cs2)cc(OC)c1OC	residual activity	0.01
Cc1ccc(-c2nc(NC(=O)Nc3ccc(F)cc3)sc2C)cc1Cl	residual activity	94.8

Could you tell me residual activity for each of these compounds? They are listed below.
1. COc1cc(NC(=O)Nc2cc(-c3ccccc3)nn2-c2nc(C)cc(=O)[nH]2)cc(OC)c1
2. COc1ccccc1NC(=O)Nc1cc(C(C)(C)C)nn1-c1ccccc1
3. O=C(Nc1ccc(OCc2ccccc2)cc1)Nc1cc(-c2ccccc2)nn1-c1ccccc1
4. Cn1nc(-c2ccc(Cl)cc2)cc1NC(=O)Nc1ccc(OCc2ccccc2)cc1
5. Cc1ccc(-c2nc(NC(=O)Nc3ccc(OCc4ccccc4)cc3)sc2C)cc1Cl
6. Cc1ccc(S(=O)(=O)NC(=O)Nc2nc(-c3ccc(C)c(Cl)c3)c(C)s2)cc1
7. Cc1sc(NC(=O)Nc2ccc(Cl)cc2)nc1-c1ccccc1
8. COc1ccc(NC(=O)Nc2nc3c(ccc4ccccc43)s2)cc1

Output line:
16
53.2
13.3
1.99
31.6
0.68
95.8
10.3

Could you tell me residual activity for each of these compounds? They are listed below.
1. Cc1ccc(-c2nc(NC(=O)Nc3ccc(Cl)cc3)sc2C)cc1
2. COc1ccc(NC(=O)Nc2cc(C)nn2C2CCCC2)cc1

Output line:
1: 20.6; 2: 103

Could you tell me residual activity for each of these compounds? They are listed below.
1. CCOC(=O)c1sc(NC(=O)Nc2ccc(Cl)c(Cl)c2)nc1C
2. Cn1nc(C(C)(C)C)cc1NC(=O)Nc1ccc(OCc2ccccc2)cc1

Output line:
0.7
97.3
